Structures can show the parent of a compound that is named as a salt.
# UniProt:Q9NWZ3: IC50 values follow
# Sequence (Q9NWZ3 whole entry): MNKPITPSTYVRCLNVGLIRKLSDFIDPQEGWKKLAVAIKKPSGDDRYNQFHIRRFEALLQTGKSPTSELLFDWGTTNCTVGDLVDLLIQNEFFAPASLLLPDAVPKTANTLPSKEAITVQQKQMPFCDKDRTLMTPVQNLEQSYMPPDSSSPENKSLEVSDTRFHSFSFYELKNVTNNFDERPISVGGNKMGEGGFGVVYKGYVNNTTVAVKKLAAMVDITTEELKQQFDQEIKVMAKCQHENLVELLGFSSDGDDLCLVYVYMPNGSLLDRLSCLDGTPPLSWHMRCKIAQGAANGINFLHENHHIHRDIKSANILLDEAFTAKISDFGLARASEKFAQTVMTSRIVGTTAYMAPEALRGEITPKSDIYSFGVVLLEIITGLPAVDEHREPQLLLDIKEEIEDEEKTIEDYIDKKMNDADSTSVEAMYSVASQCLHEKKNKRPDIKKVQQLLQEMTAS
Record the value in nM, omitting the unit from your answer.

Worked examples, 5 compounds total:
| COMPOUND | IC50, nM |
| --- | --- |
| Cn1cc(NC(=O)c2cnn3ccc(N4CCOCC4)nc23)c(C(N)=O)n1 [Example 30, hydrochloride] | 240 |
| Cn1cc(NC(=O)c2ccc3cccnn23)c(C(N)=O)n1 [Example 43, trifluoroacetate] | 27 |
| Cn1cc(NC(=O)c2cnn3ccc(N[C@@H]4CCOC[C@@H]4N)nc23)c(C(N)=O)n1 [Example 2, trifluoroacetate] | 0.6 |
| CNC(=O)c1nn(CCO)cc1NC(=O)c1ccc2cnc(N[C@@H]3CCCC[C@@H]3N)nn12 [Example 65, trifluoroacetate] | 63 |
| CS(=O)(=O)N1CCCC(n2cc(NC(=O)c3cnn4ccc(N[C@H]5CCCC[C@H]5N)nc34)c(C(N)=O)n2)C1 (relative stereo) [Example 20, trifluoroacetate] | 4 |

Task item: Give IC50 only, for NC(=O)c1nn(-c2ccncc2)cc1NC(=O)c1cnn2ccc(N3CCNCC3)nc12 [Example 34, trifluoroacetate] , using UniProt:Q9NWZ3 data.
Reply: 25

Task item: Give IC50 only, for Cn1cc(NC(=O)c2ccc3cnc(NCCN)nn23)c(C(N)=O)n1 , using UniProt:Q9NWZ3 data.
Reply: 0.9
